Reference source: paper PMC6766826

# system.name: UniProt:Q8IXJ6
# Sequence (Q8IXJ6 whole entry): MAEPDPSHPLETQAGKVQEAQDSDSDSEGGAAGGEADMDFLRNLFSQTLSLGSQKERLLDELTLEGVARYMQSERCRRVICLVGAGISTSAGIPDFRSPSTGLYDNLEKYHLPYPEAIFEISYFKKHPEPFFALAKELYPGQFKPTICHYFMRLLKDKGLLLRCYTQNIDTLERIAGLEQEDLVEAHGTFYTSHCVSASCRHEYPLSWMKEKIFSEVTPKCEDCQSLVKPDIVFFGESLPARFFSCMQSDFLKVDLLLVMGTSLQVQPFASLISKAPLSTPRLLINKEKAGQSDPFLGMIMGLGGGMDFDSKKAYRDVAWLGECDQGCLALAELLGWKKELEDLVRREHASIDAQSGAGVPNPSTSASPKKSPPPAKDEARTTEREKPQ
# assay.method.text: In vitro SIRT2 deacetylase inhibition, electrophoretic mobility shift assay
# test.parameters: recombinant SIRT2, FAM-RHKK(Ac)LM peptide, 1 mM NAD, 60 min 37 °C; mean ± SD; read-out: IC50 against SIRT2
pIC50: −log10 of the molar value.
# maps each entry to its pIC50

Here's what some known entries look like.
>>> result("COC(=O)[C@H](CSC(c1ccccc1)(c1ccccc1)c1ccccc1)NCc1ccc(N(C)C)cc1OC")
"< 4.00"
>>> result("COC(=O)[C@H](CSC(c1ccccc1)(c1ccccc1)c1ccccc1)NC(=O)c1cc(N(C)C)ccn1")
"< 4.00"

Moving on to another compound below.
GET /values?readout=pIC50&item= COC(=O)C(N)CSC(c1ccccc1)(c1ccccc1)c1ccccc1 (stereo in doubt)
< 4.00
